System: A. baumannii 14B00100 (Acinetobacter sp., BCRC number 14B0100)
condition: LYM broth, pH 5.5
metric: MIC (µg/mL)

Ac-LKWLAKKKKWRKW-NH2 [Peptide W5K06] :: 3.13
Ac-KKKWRKWLKWLAK-NH2 [Peptide W5K12] :: 3.13
Ac-KWLKWLAKKKKWR-NH2 [Peptide W5K04] :: 1.56
Ac-LAKKKKWRKWLKW-NH2 [Peptide W5K09] :: 1.56
Ac-WRKWLKWLAKKKK-NH2 [Peptide W5K02] :: 1.56
Ac-WLKWLAKKKKWRK-NH2 [Peptide W5K05] :: 1.56
Ac-RKWLKWLAKKKKW-NH2 [Peptide W5K03] :: 1.56
Ac-KKWRKWLKWLAKK-NH2 [W5K/A9W] :: 1.56
Ac-WLAKKKKWRKWLK-NH2 [Peptide W5K08] :: 3.13
Ac-KKKKWRKWLKWLA-NH2 [Peptide W5K11] :: 1.56
Ac-KWRKWLKWLAKKK-NH2 [Peptide W5K01] :: 1.56
Ac-AKKKKWRKWLKWL-NH2 [Peptide W5K10] :: 1.56
Ac-KWLAKKKKWRKWL-NH2 [Peptide W5K07] :: 3.13

---

Test system: S. aureus ATCC 25923
condition: LYM broth, pH 6.5
Recorded measurements of MIC, one per entry
metric: MIC (µg/mL)

Ac-KWLKWLAKKKKWR-NH2 [Peptide W5K04] :: 3.13
Ac-KKKKWRKWLKWLA-NH2 [Peptide W5K11] :: 1.56
Ac-WLAKKKKWRKWLK-NH2 [Peptide W5K08] :: 1.56
Ac-LKWLAKKKKWRKW-NH2 [Peptide W5K06] :: 3.13
Ac-KWLAKKKKWRKWL-NH2 [Peptide W5K07] :: 3.13
Ac-LAKKKKWRKWLKW-NH2 [Peptide W5K09] :: 1.56
Ac-WLKWLAKKKKWRK-NH2 [Peptide W5K05] :: 1.56
Ac-KWRKWLKWLAKKK-NH2 [Peptide W5K01] :: 1.56
Ac-KKWRKWLKWLAKK-NH2 [W5K/A9W] :: 1.56
Ac-AKKKKWRKWLKWL-NH2 [Peptide W5K10] :: 3.13
Ac-KKKWRKWLKWLAK-NH2 [Peptide W5K12] :: 1.56
Ac-WRKWLKWLAKKKK-NH2 [Peptide W5K02] :: 3.13
Ac-RKWLKWLAKKKKW-NH2 [Peptide W5K03] :: 3.13

---

Test system: S. aureus ATCC 25923
condition: LYM broth, pH 5.5
metric: MIC

Ac-WRKWLKWLAKKKK-NH2 [Peptide W5K02] :: 3.13 µg/mL
Ac-LKWLAKKKKWRKW-NH2 [Peptide W5K06] :: 6.25 µg/mL
Ac-LAKKKKWRKWLKW-NH2 [Peptide W5K09] :: 3.13 µg/mL
Ac-AKKKKWRKWLKWL-NH2 [Peptide W5K10] :: 3.13 µg/mL
Ac-KWLKWLAKKKKWR-NH2 [Peptide W5K04] :: 6.25 µg/mL
Ac-WLKWLAKKKKWRK-NH2 [Peptide W5K05] :: 1.56 µg/mL
Ac-KKKWRKWLKWLAK-NH2 [Peptide W5K12] :: 3.13 µg/mL
Ac-RKWLKWLAKKKKW-NH2 [Peptide W5K03] :: 3.13 µg/mL
Ac-KKWRKWLKWLAKK-NH2 [W5K/A9W] :: 1.56 µg/mL
Ac-KKKKWRKWLKWLA-NH2 [Peptide W5K11] :: 1.56 µg/mL
Ac-KWLAKKKKWRKWL-NH2 [Peptide W5K07] :: 6.25 µg/mL
Ac-KWRKWLKWLAKKK-NH2 [Peptide W5K01] :: 3.13 µg/mL
Ac-WLAKKKKWRKWLK-NH2 [Peptide W5K08] :: 3.13 µg/mL
